Reference source for all entries: ChEMBL document CHEMBL1127187

Tested on: Brachyspira hyodysenteriae
Assay: Antibacterial activity against Serpulina (Treponema) hyodysenteriae (the causative organism of swine dysentery).
Assay type: functional
measuredEndpoint: MIC

Request: For the record C=CCOc1c(O)cc(/C=C(/C)C(=O)N[C@@H]2[C@H](O)[C@@H](O)[C@H]3OCO[C@H]3[C@@H]2O)cc1Br , what value of MIC is listed for Brachyspira hyodysenteriae?
Result: > 200 µg/mL

Request: Record C=CCOc1ccc(/C=C(\C)C(=O)N[C@@H]2[C@H](O)[C@@H](O)[C@H]3OCO[C@H]3[C@@H]2O)c(Cl)c1 : what is its MIC with Brachyspira hyodysenteriae?
Result: > 200 µg/mL

Request: // fetch Brachyspira hyodysenteriae MIC for C=CCOc1ccc(/C=C(\C)C(=O)N[C@@H]2[C@H](O)[C@@H](O)[C@H]3OCO[C@H]3[C@@H]2O)c(OC)c1
Result: > 200 µg/mL

Request: Reported MIC for Brachyspira hyodysenteriae, given C=CCOc1ccc(/C=C(/C)C(=O)N[C@@H]2[C@H](O)[C@@H](O)[C@H]3OCO[C@H]3[C@@H]2O)cc1F ?
Result: 1.56 µg/mL

Request: Please provide the recorded MIC for C=CCOc1ccc(/C=C(/C)C(=O)N[C@@H]2[C@H](O)[C@@H](O)[C@H]3OCO[C@H]3[C@@H]2O)cc1OC , tested on Brachyspira hyodysenteriae.
Result: > 200 µg/mL

Request: Hello, I am looking for reported MIC with Brachyspira hyodysenteriae for C=CCOc1ccc(/C=C(/C)C(=O)N[C@@H]2[C@H](O)[C@@H](O)[C@H]3OCO[C@H]3[C@@H]2O)cc1 . Could you help?
Result: 6.25 µg/mL

Request: Hi! What's the reported MIC for C=CCOc1ccc(/C=C(/C)C(=O)N[C@@H]2[C@H](O)[C@@H](O)[C@H]3OCO[C@H]3[C@@H]2O)cc1Br on Brachyspira hyodysenteriae?
Result: 12.5 µg/mL

Request: // fetch Brachyspira hyodysenteriae MIC for C=CCOc1ccc(/C=C(/C)C(=O)N[C@@H]2[C@H](O)[C@@H](O)[C@H]3OCO[C@H]3[C@@H]2O)cc1C(=O)O
Result: > 200 µg/mL

Request: Please tell me: MIC of C=CCOc1c(C)cc(/C=C(/C)C(=O)N[C@@H]2[C@H](O)[C@@H](O)[C@H]3OCO[C@H]3[C@@H]2O)cc1C , system Brachyspira hyodysenteriae?
Result: > 200 µg/mL

Request: For Brachyspira hyodysenteriae, provide MIC of C=CCOc1ccc(/C=C(/C)C(=O)N[C@@H]2[C@H](O)[C@@H](O)[C@H]3OCO[C@H]3[C@@H]2O)cc1NC please.
Result: > 200 µg/mL

Request: So what MIC did C=CCOc1c(O)cc(/C=C(/C)C(=O)N[C@@H]2[C@H](O)[C@@H](O)[C@H]3OCOC3[C@@H]2O)cc1OC (single isomer, unassigned) get with Brachyspira hyodysenteriae?
Result: > 200 µg/mL

Request: Query for Brachyspira hyodysenteriae: what MIC does the record show for C=CCOc1c(F)cc(/C=C(\C)C(=O)N[C@@H]2[C@H](O)[C@@H](O)[C@H]3OCO[C@H]3[C@@H]2O)c(F)c1O ?
Result: 50 µg/mL

Request: Record lookup: for Brachyspira hyodysenteriae, what MIC belongs to C=CCOc1ccc(/C=C(/C)C(=O)N[C@@H]2[C@H](O)[C@@H](O)[C@H]3OCO[C@H]3[C@@H]2O)cc1Cl ?
Result: 3.13 µg/mL

Request: Which measured MIC belongs to C=CCOc1c(Br)cc(/C=C(/C)C(=O)N[C@@H]2[C@H](O)[C@@H](O)[C@H]3OCO[C@H]3[C@@H]2O)cc1Br , tested on Brachyspira hyodysenteriae?
Result: > 200 µg/mL

Request: What is its MIC for Brachyspira hyodysenteriae? Entry: C=CCOc1ccc(/C=C(/C)C(=O)N[C@@H]2[C@H](O)[C@@H](O)[C@H]3OCO[C@H]3[C@@H]2O)cc1C
Result: 6.25 µg/mL

Request: Lookup: MIC / Brachyspira hyodysenteriae / C=CCOc1ccc(/C=C(/C)C(=O)N[C@@H]2[C@H](O)[C@@H](O)[C@H]3OCO[C@H]3[C@@H]2O)cc1N
Result: 0.78 µg/mL

Request: Entry C=CCOc1c(O)cc(/C=C(/C)C(=O)N[C@@H]2[C@H](O)[C@@H](O)[C@H]3OCO[C@H]3[C@@H]2O)cc1C#N , system Brachyspira hyodysenteriae: what MIC was measured?
Result: > 200 µg/mL

Request: # returns recorded MIC (system: Brachyspira hyodysenteriae) for C=CCOc1ccc(/C=C(\C)C(=O)N[C@@H]2[C@H](O)[C@@H](O)[C@H]3OCO[C@H]3[C@@H]2O)c(F)c1
Result: 3.13 µg/mL

Request: Provide value of MIC for this record tested with Brachyspira hyodysenteriae: C=CCOc1c(F)cc(/C=C(/C)C(=O)N[C@@H]2[C@H](O)[C@@H](O)[C@H]3OCO[C@H]3[C@@H]2O)cc1F
Result: 25 µg/mL

Request: // map C=CCOc1ccc(/C=C(/C)C(=O)N[C@@H]2[C@H](O)[C@@H](O)[C@H]3OCO[C@H]3[C@@H]2O)cc1NC(C)=O to recorded MIC (system: Brachyspira hyodysenteriae)
Result: > 200 µg/mL

Request: So what MIC did C=CCOc1ccc(/C=C(/C)C(=O)N[C@@H]2[C@H](O)[C@@H](O)[C@H]3OCO[C@H]3[C@@H]2O)cc1I get with Brachyspira hyodysenteriae?
Result: 100 µg/mL

Request: # query: MIC | item C=CCOc1ccc(/C=C(\C)C(=O)N[C@@H]2[C@H](O)[C@@H](O)[C@H]3OCO[C@H]3[C@@H]2O)c(F)c1F | system: Brachyspira hyodysenteriae
Result: 25 µg/mL

Request: Can you look up MIC on Brachyspira hyodysenteriae for CC(=O)[C@H]1O[C@@H](Oc2ccc(C=C(C)C(=O)N[C@@H]3[C@H](O)[C@@H](O)[C@H]4OCO[C@H]4[C@@H]3O)cc2O)[C@@H](O)[C@@H]1O ?
Result: 0.78 µg/mL

Request: Lab note: need MIC with Brachyspira hyodysenteriae for entry C=CCOc1cc(F)c(/C=C(/C)C(=O)N[C@@H]2[C@H](O)[C@@H](O)[C@H]3OCO[C@H]3[C@@H]2O)cc1F , please look it up.
Result: 1.56 µg/mL

Request: Can you look up MIC on Brachyspira hyodysenteriae for C=CCOc1ccc(/C=C(/C)C(=O)N[C@@H]2[C@H](O)[C@@H](O)[C@H]3OCO[C@H]3[C@@H]2O)cc1NS(C)(=O)=O ?
Result: > 200 µg/mL
